The measured values listed here are drawn from patent US10167299B2.

measurement-notes: Pharmacokinetic experiment of rats
details: male, rat, plasma, po, 20 mg/kg
property: Cmax (ng/mL)
Give just the number in ng/mL; leave the unit off.

(Q) Fill blank: measured Cmax of the compound "Cc1nnc(C(C)C)n1C1CCN(CC[C@H](NC(=O)C2CCCC2)c2cccs2)CC1" is ____.
(A) 122

====

measurement-notes: Pharmacokinetic experiment of rats
details: male, rat, plasma, iv, 10 mg/kg
property: AUC(0-t) (ng·h/mL)
Give just the number in ng·h/mL; leave the unit off.

(Q) Fill blank: measured AUC(0-t) of the compound "Cc1nnc(C(C)C)n1C1CCN(CC[C@H](NC(=O)C2CCCC2)c2cccs2)CC1" is ____.
(A) 374

====

Readings of IC50 for the listed compounds
target: UniProtKB P10635
Sequence (P10635 whole entry): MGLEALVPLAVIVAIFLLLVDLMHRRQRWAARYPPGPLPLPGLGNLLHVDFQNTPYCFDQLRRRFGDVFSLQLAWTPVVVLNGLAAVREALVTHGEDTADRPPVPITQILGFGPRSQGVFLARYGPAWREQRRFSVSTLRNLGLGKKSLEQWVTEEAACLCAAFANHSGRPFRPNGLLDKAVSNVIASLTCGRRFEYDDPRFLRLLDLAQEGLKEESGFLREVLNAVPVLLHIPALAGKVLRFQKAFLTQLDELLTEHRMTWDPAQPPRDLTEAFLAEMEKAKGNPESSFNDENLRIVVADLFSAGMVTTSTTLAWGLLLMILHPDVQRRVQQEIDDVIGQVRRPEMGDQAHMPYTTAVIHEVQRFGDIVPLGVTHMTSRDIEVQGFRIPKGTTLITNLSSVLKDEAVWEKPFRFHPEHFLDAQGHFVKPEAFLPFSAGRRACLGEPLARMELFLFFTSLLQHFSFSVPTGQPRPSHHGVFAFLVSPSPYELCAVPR
measurement-notes: CYP450 inhibition activity assay (Vivid kit) CYP2D6
Type: in vitro ADME
details: CYP450 subtype (μM) 2D6 (IC50)

Past entries and their recorded results:
| compound | IC50 |
| --- | --- |
| Cc1nnc(C(C)C)n1C1CC2CCC(C1)N2CC[C@H](NC(=O)C1CCCC1)c1cccs1 (stereo partly drawn) [Compound 18] | 16.8 µM |
| Cc1nnc(C(C)C)n1C1CC2CCC(C1)N2CC[C@H](NC(=O)C1CCCCC1)c1cccs1 (stereo partly drawn) [Compound 16] | 15.1 µM |
| Cc1nnc(C(C)C)n1[C@@H]1C[C@H]2CC[C@@H](C1)N2CC[C@H](NC(=O)C1CCC(F)(F)CC1)c1ccccc1 [Maraviroc, reference compound] | > 25 µM |
| Cc1ccc([C@H](CCN2C3CCC2CC(n2c(C)nnc2C(C)C)C3)NC(=O)C2CCC(F)(F)CC2)s1 (stereo partly drawn) [Compound 29] | > 25 µM |
| Cc1nnc(C(C)C)n1C1CCN(CC[C@H](NC(=O)C2CCCC2)c2cccs2)CC1 [Compound 17] | > 25 µM |

// switching to the query compound
(Q) Fill blank: measured IC50 of the compound Cc1nnc(C(C)C)n1C1CC2CCC(C1)N2CC[C@H](NC(=O)C1CCC(F)(F)CC1)c1ccsc1 (stereo partly drawn) [Compound 22] is ____.
(A) > 25 µM

====

measurement-notes: Pharmacokinetic experiment of rats
details: male, rat, plasma, po, 20 mg/kg
property: Tmax (min)
Give just the number in min; leave the unit off.

(Q) Fill blank: measured Tmax of the compound Cc1nnc(C(C)C)n1C1CCN(CC[C@H](NC(=O)C2CCCC2)c2cccs2)CC1 [Compound 17] is ____.
(A) 30

====

measurement-notes: Pharmacokinetic experiment on Beagles
details: male, beagle, dog, plasma, po, 15 mg/kg, Tmax h, Beagles, gavage
property: Tmax (min)
Give just the number in min; leave the unit off.

(Q) Fill blank: measured Tmax of the compound Cc1nnc(C(C)C)n1C1CC2CCC(C1)N2CC[C@H](NC(=O)C1CCC(F)(F)CC1)c1ccsc1 (stereo partly shown) is ____.
(A) 50

====

measurement-notes: Pharmacokinetic experiment of rats
details: male, rat, plasma, iv, 10 mg/kg
property: AUC(0-inf) (ng·h/mL)
Give just the number in ng·h/mL; leave the unit off.

(Q) Fill blank: measured AUC(0-inf) of the compound Cc1nnc(C(C)C)n1C1CCN(CC[C@H](NC(=O)C2CCCC2)c2cccs2)CC1 [Compound 17] is ____.
(A) 394

====

measurement-notes: in vivo
details: male, rat, 10 mg/kg
property: Cmax (ng/mL)
Give just the number in ng/mL; leave the unit off.

(Q) Fill blank: measured Cmax of the compound Cc1ccc([C@H](CCN2C3CCC2CC(n2c(C)nnc2C(C)C)C3)NC(=O)C2CCC(F)(F)CC2)s1 (stereo partly shown) [Compound 29] is ____.
(A) 1690

====

target: CCR5 (Homo sapiens (Human), UniProt P51681)
Sequence (P51681 whole entry): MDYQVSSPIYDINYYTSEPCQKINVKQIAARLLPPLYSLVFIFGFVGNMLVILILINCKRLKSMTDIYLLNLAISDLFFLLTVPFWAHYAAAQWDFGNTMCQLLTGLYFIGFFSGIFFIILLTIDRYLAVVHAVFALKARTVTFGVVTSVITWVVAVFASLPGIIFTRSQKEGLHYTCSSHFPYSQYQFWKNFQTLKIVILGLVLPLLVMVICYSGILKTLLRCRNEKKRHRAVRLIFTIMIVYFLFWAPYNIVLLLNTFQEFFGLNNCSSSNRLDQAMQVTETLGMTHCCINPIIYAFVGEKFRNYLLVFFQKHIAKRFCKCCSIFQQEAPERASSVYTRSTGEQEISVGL
measurement-notes: Calcium flux inhibition experiment
Assay type: cell-based
details: HEK293/CCR5-Gα16 cell line, calcium flux; read-out: CCR5 IC50
pIC50: −log10 of the molar value.
pIC50 vs 8: at or above is satisfied, below is not satisfied.

| compound | assigned-class |
| --- | --- |
| Cc1nnc(C(C)C)n1C1CCN(CC[C@H](NC(=O)C2CCCC2)c2cccnc2)CC1 | not satisfied |
| Cc1nnc(C(C)C)n1[C@@H]1C[C@H]2CC[C@@H](C1)N2CC[C@H](NC(=O)C1CCC(F)(F)CC1)c1cccc(F)n1 | not satisfied |
| Cc1ccc([C@H](CCN2C3CCC2CC(n2c(C)nnc2C(C)C)C3)NC(=O)Cc2ccc(F)cc2)s1 (stereo partly shown) | not satisfied |
| Cc1nnc(C(C)C)n1C1CC2CCC(C1)N2CC[C@H](NC(=O)C1CCCCC1)c1cccnc1 (stereo partly shown) | not satisfied |
| Cc1nnc(C(C)C)n1C1CC2CCC(C1)N2CC[C@H](NC(=O)C1CCN(S(C)(=O)=O)CC1)c1ccc(Cl)s1 (stereo partly shown) | satisfied |

(Q) Does pIC50 meet or surpass 8 for "Cc1nnc(C(C)C)n1C1CCN(CC[C@H](NC(=O)C2CCCC2)c2ccsc2)CC1" ?
(A) not satisfied

====

Readings of Cmax for the listed compounds
measurement-notes: in vivo
details: male, rat, iv, 10 mg/kg
Give just the number in ng/mL; leave the unit off.

Past entries and their recorded results:
| compound | reported-measurement |
| --- | --- |
| Cc1nnc(C(C)C)n1C1CC2CCC(C1)N2CC[C@H](NC(=O)C1CCCC1)c1cccs1 (stereo partly shown) | 771 |
| Cc1nnc(C(C)C)n1C1CC2CCC(C1)N2CC[C@H](NC(=O)C1CCC(F)(F)CC1)c1cccs1 (stereo partly shown) | 6840 |
| Cc1nnc(C(C)C)n1C1CC2CCC(C1)N2CC[C@H](NC(=O)C1CCCCC1)c1cccs1 (stereo partly shown) | 4320 |

(Q) Fill blank: measured Cmax of the compound Cc1nnc(C(C)C)n1C1CC2CCC(C1)N2CC[C@H](NC(=O)C1CCC(F)(F)CC1)c1ccsc1 (stereo partly shown) is ____.
(A) 3780

====

measurement-notes: in vivo
details: male, rat, 10 mg/kg
property: AUC(0-t) (ng·h/mL)
Give just the number in ng·h/mL; leave the unit off.

Past entries and their recorded results:
| molecule | property | units-label | reported-measurement |
| --- | --- | --- | --- |
| Cc1ccc([C@H](CCN2C3CCC2CC(n2c(C)nnc2C(C)C)C3)NC(=O)C2CCC(F)(F)CC2)s1 (some centres unmarked) | AUC(0-t) | ng·h/mL | 2330 |
| Cc1nnc(C(C)C)n1C1CC2CCC(C1)N2CC[C@H](NC(=O)C1CCCCC1)c1cccs1 (some centres unmarked) | AUC(0-t) | ng·h/mL | 5110 |
| Cc1nnc(C(C)C)n1C1CC2CCC(C1)N2CC[C@H](NC(=O)C1CCC(F)(F)CC1)c1cccs1 (some centres unmarked) | AUC(0-t) | ng·h/mL | 7050 |

(Q) Fill blank: measured AUC(0-t) of the molecule Cc1nnc(C(C)C)n1C1CC2CCC(C1)N2CC[C@H](NC(=O)C1CCC(F)(F)CC1)c1ccsc1 (some centres unmarked) is ____.
(A) 4150

(Q) Fill blank: measured AUC(0-t) of the molecule Cc1nnc(C(C)C)n1C1CC2CCC(C1)N2CC[C@H](NC(=O)C1CCCC1)c1cccs1 (some centres unmarked) is ____.
(A) 1550

====

target: CCR5 (Homo sapiens (Human), UniProt P51681)
measurement-notes: Calcium flux inhibition experiment
Type: cell-based
details: HEK293/CCR5-Gα16 cell line, calcium flux; read-out: CCR5 IC50
property: IC50

Past entries and their recorded results:
| compound | IC50 |
| --- | --- |
| CC(=O)N[C@@H](CCN1C2CCC1CC(n1c(C)nc3c1CCN(C(=O)C(C)C)C3)C2)c1ccc(Cl)s1 (stereo partly drawn) | 14.2 nM |
| COC(=O)N1CCc2c(nc(C)n2C2CC3CCC(C2)N3CC[C@H](NC(C)=O)c2ccc(Cl)s2)C1 (stereo partly drawn) | 22 nM |
| COC(=O)N1CCc2c(nc(C)n2C2CC3CCC(C2)N3CC[C@H](NC(C)=O)c2ccc(F)s2)C1 (stereo partly drawn) | 1.78 nM |
| Cc1nnc(C(C)C)n1C1CC2CCC(C1)N2CC[C@H](NC(=O)C1CCC(F)(F)CC1)c1cccs1 (stereo partly drawn) | 2.33 nM |

(Q) Query IC50 on CCR5 (Homo sapiens (Human), UniProt P51681) for CCC(=O)N1CCc2c(nc(C)n2C2CC3CCC(C2)N3CC[C@H](NC(C)=O)c2ccc(Cl)s2)C1 (stereo partly drawn)
(A) 22.9 nM

(Q) Query IC50 on CCR5 (Homo sapiens (Human), UniProt P51681) for CC(=O)N[C@@H](CCN1C2CCC1CC(n1c(C)nc3c1CCN(C(C)=O)C3)C2)c1ccc(C#N)s1 (stereo partly drawn)
(A) 8.53 nM

(Q) Query IC50 on CCR5 (Homo sapiens (Human), UniProt P51681) for CC(=O)N[C@@H](CCN1C2CCC1CC(n1c(C)nc3c1CCN(C(=O)C1CC1)C3)C2)c1nccs1 (stereo partly drawn)
(A) 24.5 nM

(Q) Query IC50 on CCR5 (Homo sapiens (Human), UniProt P51681) for Cc1nnc(C(C)C)n1C1CC2CCC(C1)N2CC[C@H](NC(=O)C1CCN(S(C)(=O)=O)CC1)c1cccs1 (stereo partly drawn)
(A) 1.75 nM

(Q) Query IC50 on CCR5 (Homo sapiens (Human), UniProt P51681) for CCC1CCC(C(=O)N[C@@H](CCN2C3CCC2CC(n2c(C)nnc2C(C)C)C3)c2cccs2)CC1 (stereo partly drawn)
(A) 21.5 nM

(Q) Query IC50 on CCR5 (Homo sapiens (Human), UniProt P51681) for Cc1ccc([C@H](CCN2C3CCC2CC(n2c(C)nnc2C(C)C)C3)NC(=O)C2CCCCC2)s1 (stereo partly drawn)
(A) 24 nM
